Just for reference, PubChem BioAssay AID1918945 is where these values come from.

Tested on: 883617-216-R-J1-PDC complex spheroid viability;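 further: exposure lasted seven days after three days of spheroid growth; 100% = DMSO vehicle control luminescence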
Test: Anticancer human tumor 883617-216-R-J1-PDC patient-derived bladder carcinoma cell line growth inhibition
Conditions: second compound 0.316 µM; first compound 10 µM; active compounds read low
Description: Multicellular complex tumor spheroid response to LSD1 Inhibitor Iadademstat in combination with a variety of drugs and investigational agents in selected tumor cell lines The current study was undertaken to assess response to LSD1 inhibitors in combination with standard-of-care drugs and investigational agents in solid tumor complex spheroid models as well as in the K-562 leukemia. […] Compounds. […] If the clinical Cmax for an agent had not been determined, the highest concentration tested was 10 microM. […]

{"compound": "COc1ccc([C@@H](O)c2cc(-c3ncnc4cc(N5CCOCC5)ccc34)c(F)cc2Cl)nn1 + NC1CCC(NC2CC2c2ccccc2)CC1", "experimental_target": "883617-216-R-J1-PDC complex spheroid viability", "viability, T/C / %": 19.2}
{"compound": "CC1COCCN1c1cc(C2(S(C)(=N)=O)CC2)nc(-c2ccnc3[nH]ccc23)n1 (stereo not given) + NC1CC1c1ccc(-c2cccc(O)c2)cc1", "experimental_target": "883617-216-R-J1-PDC complex spheroid viability", "viability, T/C / %": 25.2}
{"compound": "CC1(C)CCC(CN2CCN(c3ccc(C(=O)NS(=O)(=O)c4ccc(NCC5CCOCC5)c([N+](=O)[O-])c4)c(Oc4cnc5[nH]ccc5c4)c3)CC2)=C(c2ccc(Cl)cc2)C1 + NC1CCC(NC2CC2c2ccccc2)CC1", "experimental_target": "883617-216-R-J1-PDC complex spheroid viability", "viability, T/C / %": 28.9}
{"compound": "O=C(c1cc(Cc2n[nH]c(=O)c3ccccc23)ccc1F)N1CCN(C(=O)C2CC2)CC1 + NC1CC1c1ccc(-c2cccc(O)c2)cc1", "experimental_target": "883617-216-R-J1-PDC complex spheroid viability", "viability, T/C / %": 31.9}
{"compound": "CC1(C)CCC(CN2CCN(c3ccc(C(=O)NS(=O)(=O)c4ccc(NCC5CCOCC5)c([N+](=O)[O-])c4)c(Oc4cnc5[nH]ccc5c4)c3)CC2)=C(c2ccc(Cl)cc2)C1 + NC1CC1c1ccc(-c2cccc(O)c2)cc1", "experimental_target": "883617-216-R-J1-PDC complex spheroid viability", "viability, T/C / %": 23}
{"compound": "O=C(c1cc(Cc2n[nH]c(=O)c3ccccc23)ccc1F)N1CCN(C(=O)C2CC2)CC1 + NC1CCC(NC2CC2c2ccccc2)CC1", "experimental_target": "883617-216-R-J1-PDC complex spheroid viability", "viability, T/C / %": 47.5}
{"compound": "CC(C)c1c(-c2ccccc2)nc2c(C#N)c[nH]n2c1=O + NC1CC1c1ccc(-c2cccc(O)c2)cc1", "experimental_target": "883617-216-R-J1-PDC complex spheroid viability", "viability, T/C / %": 108}
{"compound": "CC1COCCN1c1cc(C2(S(C)(=N)=O)CC2)nc(-c2ccnc3[nH]ccc23)n1 (stereo not given) + NC1CCC(NC2CC2c2ccccc2)CC1", "experimental_target": "883617-216-R-J1-PDC complex spheroid viability", "viability, T/C / %": 33}
{"compound": "CC(C)c1c(-c2ccccc2)nc2c(C#N)c[nH]n2c1=O + NC1CCC(NC2CC2c2ccccc2)CC1", "experimental_target": "883617-216-R-J1-PDC complex spheroid viability", "viability, T/C / %": 95}
{"compound": "COc1ccc([C@@H](O)c2cc(-c3ncnc4cc(N5CCOCC5)ccc34)c(F)cc2Cl)nn1 + NC1CC1c1ccc(-c2cccc(O)c2)cc1", "experimental_target": "883617-216-R-J1-PDC complex spheroid viability", "viability, T/C / %": 15.3}
